target: Glycine receptor (Rattus norvegicus, UniProt P22771+P24524+P07727+P20781); format: cell membranes, Wistar, Spinal cord, Membrane; further: in other assays of this panel Not Active means under 50% inhibition at 10 µM
Where a SMILES comes first, the peptide text is derived from it. Bridges are numbered along the chain shown (N, C = ends). [ ]: non-standard residue; d: D form. The star is where a group is joined. Ileψ(thiazoline)Cys = CC[C@H](C)[C@H](N)C1=N[C@H](C(=O)*)CS1; dOrn = NCCC[C@@H](N)C(=O)O

- Molecule: "CN(C)[C@@H]1C(O)=C(C(N)=O)C(=O)[C@@]2(O)C(O)=C3C(=O)c4c(O)cccc4[C@@](C)(O)[C@H]3[C@H](O)[C@@H]12"
  IC50: "Not Active"
- Molecule: "CC[N+](CC)(CC)CCOc1cccc(OCC[N+](CC)(CC)CC)c1OCC[N+](CC)(CC)CC.[I-].[I-].[I-] [GALLAMINE TRIETHIODIDE]"
  IC50: "Not Active"
- Molecule: "CC[C@H](C)[C@H](N)C1=N[C@H](C(=O)N[C@@H](CC(C)C)C(=O)N[C@H](CCC(=O)O)C(=O)N[C@H](C(=O)N[C@H]2CCCCNC(=O)[C@H](CC(N)=O)NC(=O)[C@@H](CC(=O)O)NC(=O)[C@H](Cc3cnc[nH]3)NC(=O)[C@@H](Cc3ccccc3)NC(=O)[C@H]([C@@H](C)CC)NC(=O)[C@@H](CCCN)NC2=O)[C@@H](C)CC)CS1 [BACITRACIN] ({Ileψ(thiazoline)Cys}-L[dE]IK[dOrn]I[dF]H[dD]N; lactam 4-C)"
  IC50: "Not Active"
- Molecule: "Clc1ccc(C(c2ccccc2Cl)C(Cl)Cl)cc1 (stereo unspecified)"
  IC50: "Not Active"
- Molecule: "C=CC[C@@H]1/C=C(\\C)C[C@H](C)C[C@H](OC)[C@H]2O[C@@](O)(C(=O)C(=O)N3CCCC[C@H]3C(=O)O[C@H](/C(C)=C/[C@@H]3CC[C@@H](O)[C@H](OC)C3)[C@H](C)[C@@H](O)CC1=O)[C@H](C)C[C@@H]2OC [TACROLIMUS ANHYDROUS]"
  IC50: "Not Active"
- Molecule: "NCC[C@H](O)C(=O)N[C@@H]1C[C@H](N)[C@@H](O[C@H]2O[C@H](CN)[C@@H](O)[C@H](O)[C@H]2O)[C@H](O)[C@H]1O[C@H]1O[C@H](CO)[C@@H](O)[C@H](N)[C@H]1O"
  IC50: "Not Active"
- Molecule: "Oc1c(Cl)cc(Cl)cc1Sc1cc(Cl)cc(Cl)c1O"
  IC50: "Not Active"
- Molecule: "CCC[C@@H]1C[C@@H](C(=O)N[C@@H]([C@H]2O[C@H](SC)[C@H](O)[C@@H](O)[C@H]2O)[C@@H](C)O)N(C)C1"
  IC50: "Not Active"
- Molecule: "Nc1nc2c(ncn2COC(CO)CO)c(=O)[nH]1"
  IC50: "Not Active"
- Molecule: "COc1ccc(C(CN(C)C)C2(O)CCCCC2)cc1 (stereo unspecified)"
  IC50: "Not Active"
- Molecule: "CC(C)(S)[C@@H](N)C(=O)O"
  IC50: "Not Active"

---

assay: DRUGMATRIX: Platelet-Derived Growth Factor (PDGF) radioligand binding (ligand: [125I] PDGF); type: cell-based; details: nih3t3; Not Active = under 50% inhibition at 10 µM

- Compound: "COc1ccc2cc(CC(=O)O)ccc2c1"
  Ki: "Not Active"
- Compound: "Cc1ccccc1N1CCN(CCc2nnc3n2CCCC3)CC1 [DAPIPRAZOLE]"
  Ki: "Not Active"
- Compound: "Cn1cnc([N+](=O)[O-])c1Sc1ncnc2nc[nH]c12 [AZATHIOPRINE]"
  Ki: "Not Active"
- Compound: "CC1(C)S[C@@H]2[C@H](NC(=O)[C@H](N)c3ccc(O)cc3)C(=O)N2[C@H]1C(=O)O [AMOXICILLIN]"
  Ki: "Not Active"
- Compound: "CCCc1cc(=O)[nH]c(=S)[nH]1 [PROPYLTHIOURACIL]"
  Ki: "Not Active"
- Compound: "COC1=CC(=O)C[C@@H](C)[C@]12Oc1c(Cl)c(OC)cc(OC)c1C2=O [GRISEOFULVIN]"
  Ki: "Not Active"
- Compound: "c1ccc2[nH]c(-c3cscn3)nc2c1 [THIABENDAZOLE]"
  Ki: "Not Active"
- Compound: "Oc1c(Cl)cc(Cl)cc1Sc1cc(Cl)cc(Cl)c1O [BITHIONOL]"
  Ki: "Not Active"
- Compound: "CN(C)[C@@H]1C(O)=C(C(N)=O)C(=O)[C@@]2(O)C(O)=C3C(=O)c4c(O)cccc4[C@@](C)(O)[C@H]3C[C@@H]12 [TETRACYCLINE]"
  Ki: "Not Active"
